# ASSAY NAME: Pharmacokinetics in plasma of mice (LC-MS/MS)
# RECORDED CONDITIONS: male, NOD/SCID, mouse, in vivo, ip, 50 mg/kg
READOUT TYPE: Cmax (µg/mL)
Kindly provide the numeric value in µg/mL only, without the unit symbol.

Which Cmax value belongs to Cc1sc2c(c1C)C(c1ccc(Cl)cc1)=N[C@@H](CC(=O)O[C@H](C)c1ccc(C(=O)Nc3ccccc3N)cc1)c1nnc(C)n1-2 ?
74.6

* * *

Measured Ratio, CD44 of individual entries
# Test system: BCBL-1 cells
# ASSAY NAME: RNA-Sequencing of compound-treated vs vehicle-treated cells
# Type: cell-based, human
# RECORDED CONDITIONS: gene expression, treated vs vehicle BCBL-1 cells
Just the number, please.

A selection of reference data follows.
MOLECULE	READOUT TYPE	REPORTED RESULT
Cc1sc2c(c1C)C(c1ccc(Cl)cc1)=N[C@@H](CC(=O)O[C@@H](C)c1ccc(C(=O)Nc3ccccc3N)cc1)c1nnc(C)n1-2	Ratio, CD44	0.1695
O=C(CCCCCCC(=O)Nc1ccccc1)NO [SAHA, suberoylanilide hydroxamic acid, reference compound]	Ratio, CD44	0.293
Cc1sc2c(c1C)C(c1ccc(Cl)cc1)=N[C@@H](CC(=O)O[C@H](C)c1ccc(C(=O)Nc3ccccc3N)cc1)c1nnc(C)n1-2	Ratio, CD44	0.1954

Would you kindly look at the next entry?
Which Ratio, CD44 value belongs to Cc1sc2c(c1C)C(c1ccc(Cl)cc1)=N[C@@H](CC(=O)OC(C)(C)C)c1nnc(C)n1-2 [(+)-JQ1, reference compound] ?
0.09101

* * *

# Test system: BCBL-1 cells
# ASSAY NAME: Cell death regulatory proteins by Western blot
# Format: cell-based
# RECORDED CONDITIONS: 50 nM, 48 h
READOUT TYPE: Expression of p-RB, cleaved-caspase 3 and cleaved-PARP

COMPOUND	REPORTED RESULT
Cc1sc2c(c1C)C(c1ccc(Cl)cc1)=N[C@@H](CC(=O)O[C@H](C)c1ccc(C(=O)Nc3ccccc3N)cc1)c1nnc(C)n1-2	strongly affected
Cc1sc2c(c1C)C(c1ccc(Cl)cc1)=N[C@@H](CC(=O)OC(C)(C)C)c1nnc(C)n1-2 [(+)-JQ1, reference compound]	almost unchanged
Cc1sc2c(c1C)C(c1ccc(Cl)cc1)=N[C@@H](CC(=O)O[C@@H](C)c1ccc(C(=O)Nc3ccccc3N)cc1)c1nnc(C)n1-2	strongly affected
O=C(CCCCCCC(=O)Nc1ccccc1)NO [SAHA, suberoylanilide hydroxamic acid, reference compound]	almost unchanged

* * *

# Test system: HDACs
# ASSAY NAME: HDACs signaling by Western blot (H3K9Ac, H4K9Ac, Acetyl-tubulin)
# Format: cell-based
# RECORDED CONDITIONS: BCBL-1 cells, 48 h, Western blot
READOUT TYPE: H3K9Ac, H4K9Ac and Acetyl-tubulin protein levels

COMPOUND STRUCTURE	REPORTED RESULT
Cc1sc2c(c1C)C(c1ccc(Cl)cc1)=N[C@H](CC(=O)O[C@H](C)c1ccc(C(=O)Nc3ccccc3N)cc1)c1nnc(C)n1-2	upregulated
Cc1sc2c(c1C)C(c1ccc(Cl)cc1)=N[C@@H](CC(=O)O[C@H](C)c1ccc(C(=O)Nc3ccccc3N)cc1)c1nnc(C)n1-2	increased
Cc1sc2c(c1C)C(c1ccc(Cl)cc1)=N[C@@H](CC(=O)O[C@@H](C)c1ccc(C(=O)Nc3ccccc3N)cc1)c1nnc(C)n1-2	increased
Cc1sc2c(c1C)C(c1ccc(Cl)cc1)=N[C@H](CC(=O)O[C@@H](C)c1ccc(C(=O)Nc3ccccc3N)cc1)c1nnc(C)n1-2	upregulated
